assay: Selectivity index, ratio of IC50 for human CCD-841-CoN cells to IC50 for human DLD1 cells; format: toxicity; settings: CCD-841-CoN cells versus DLD1 cells, read-out: Ratio IC50

TEST SMILES: CC(=O)Oc1ccccc1C(=O)Oc1ccc(F)cc1/C=C/C=O
selectivity ratio: 7

* * *

experiment: Selectivity index, ratio of IC50 for human CCD-841-CoN cells to IC50 for human HCT8 cells; format: toxicity; settings: CCD-841-CoN cells versus HCT8 cells, read-out: Ratio IC50

TEST SMILES: CC(=O)Oc1ccccc1C(=O)Oc1ccc(F)cc1/C=C/C=O
selectivity ratio: 11

* * *

system: DLD-1; assay: Antiproliferative activity against human DLD1 cells after 72 hrs by MTT assay; format: functional, cell-based; conditions: DLD-1, 72 h
pIC50: −log10 of the molar value.
Measured pIC50, listed per entry.

MOLECULE: CC(=O)Oc1ccccc1C(=O)Oc1ccc(F)cc1/C=C/C=O
pIC50: 5.37
--
MOLECULE: O=c1[nH]cc(F)c(=O)[nH]1 [FLUOROURACIL]
pIC50: 4.48
